Exercise: state measured TD50 at 24 h for each of the molecules provided.
experiment: diarrhea activity, fasted rats, samples given by gastric tube, occurrence of diarrhea observed in the following 24 hours; set-up: species or system Sprague-Dawly rat; conditions: rat, in vivo, po, observed 24 hours, figures in parenthesis indicate confidence limit, read-out: ED50 diarrhea activity
Write it as a number; the unit mg/kg goes unstated.

input: Entry CCCCC[C@](C)(O)/C=C/[C@H]1[C@H](O)CC(=O)[C@@H]1C/C=C\CCCC(=O)OC [B] : reported TD50 at 24 h = ?
output: 0.047

input: Consider the molecule shown here: CCCCC[C@@](C)(O)/C=C/[C@H]1[C@H](O)CC(=O)[C@@H]1C/C=C\CCCC(=O)OC [A] What is its recorded TD50 at 24 h?
output: 0.12

input: Which value of TD50 at 24 h has been reported for CCCCC[C@@](C)(O)/C=C/[C@H]1[C@H](O)CC(=O)[C@@H]1C/C=C\CC(C)CC(=O)OC (stereo partly drawn) [Compound C] in the records?
output: 1.2
